experiment: T. cruzi intracellular proliferation inhibitors, primary screen, cell-based, beta-gal Tulahuen parasites, NIH3T3 host, luminescence (AID 624255); details: T. cruzi beta-gal in NIH3T3, GalScreen luminescence, 90 h; at 8.34 µM; stronger effect = higher value
In all, about 77,000 compounds went through this assay and about 4,600 (6%) were called active. Not shown: some 1% with an inconclusive outcome. Shown is part of a subset that was picked to be rich in actives.
Lab note: compare inhibition against 50%. Equal or greater, write MET. Smaller, write NOT MET.

Use the examples below as a reference point.
C[C@H](CO)N1C[C@H](C)[C@@H](CN(C)C(=O)Nc2ccc3c(c2)OCO3)OCCCC[C@H](C)Oc2ccc(NC(=O)Nc3ccc4c(c3)OCO4)cc2C1=O MET
C[C@@H]1CN([C@H](C)CO)C(=O)Cc2cc(NC(=O)Cc3cn(C)c4ccccc34)ccc2O[C@@H]1CN(C)Cc1ccc(C(F)(F)F)cc1 MET
O=S(=O)(Cc1ccccc1)N1CCCCN2[C@@H](CO)[C@H](c3ccc(-c4ccccc4)cc3)[C@@H]2C1 MET
C[C@@H]1CN([C@@H](C)CO)C(=O)c2cc(NC(=O)Nc3ccc4c(c3)OCO4)ccc2O[C@@H](C)CCCCO[C@@H]1CN(C)C(=O)Nc1ccc2c(c1)OCO2 NOT MET
C[C@@H]1CN([C@@H](C)CO)C(=O)Cc2cc(NC(=O)Cc3ccccc3)ccc2O[C@@H]1CN(C)Cc1ccc(Oc2ccccc2)cc1 NOT MET

[Q] Kindly determine if inhibition recorded for COc1ccc(CN(C)C[C@H]2Oc3ccc(NC(=O)Cc4ccccc4)cc3CC(=O)N([C@@H](C)CO)C[C@@H]2C)cc1 is above or exactly 50%.
[A] MET

[Q] Kindly determine if inhibition recorded for C[C@@H]1CCCCO[C@@H](CN(C)C(=O)Nc2ccc(C(F)(F)F)cc2)[C@H](C)CN([C@H](C)CO)C(=O)c2cc(NC(=O)C3CCCCC3)ccc2O1 is above or exactly 50%.
[A] MET

[Q] Kindly determine if inhibition recorded for C[C@H]1CN([C@@H](C)CO)C(=O)Cc2cc(NC(=O)Cc3cn(C)c4ccccc34)ccc2O[C@H]1CN(C)Cc1ccccc1 is above or exactly 50%.
[A] MET

[Q] Kindly determine if inhibition recorded for COc1ccc(NC(=O)Nc2ccc3c(c2)C(=O)N([C@H](C)CO)C[C@H](C)[C@@H](CN(C)C(=O)Nc2ccc(OC)cc2)OCCCC[C@H](C)O3)cc1 is above or exactly 50%.
[A] NOT MET

[Q] Kindly determine if inhibition recorded for COc1ccc(NC(=O)Nc2ccc3c(c2)C(=O)N([C@@H](C)CO)C[C@H](C)[C@H](CN(C)C(=O)Nc2ccccc2)OCCCC[C@@H](C)O3)cc1 is above or exactly 50%.
[A] MET

[Q] Kindly determine if inhibition recorded for C[C@H]1CN([C@@H](C)CO)C(=O)Cc2cc(NC(=O)Cc3cn(C)c4ccccc34)ccc2O[C@@H]1CN(C)Cc1ccc(C(F)(F)F)cc1 is above or exactly 50%.
[A] MET

[Q] Kindly determine if inhibition recorded for C[C@H]1CN([C@@H](C)CO)C(=O)Cc2cc(NS(=O)(=O)c3ccccc3)ccc2O[C@H]1CN(C)Cc1ccc(C(=O)Nc2ccccc2N)cc1 is above or exactly 50%.
[A] NOT MET

* * *

Readings of inhibition for the listed compounds
assay: T. cruzi intracellular proliferation inhibitors, primary screen, cell-based, beta-gal Tulahuen parasites, NIH3T3 host, luminescence (AID 624255); conditions: T. cruzi beta-gal in NIH3T3, GalScreen luminescence, 90 h; at 8.34 µM; stronger effect = higher value
Screen size: about 77,000 compounds; about 4,600 (6%) were called active. Another 1% or so got no clear call; they are omitted. What follows is part of a selection rich in actives, with near analogues and random picks from the rest.

Please review the entries below; each comes with its answer.
COCC(=O)Nc1ccc2c(c1)C(=O)N(C)C[C@@H](OC)[C@@H](C)CN(CC1CCCCC1)[C@@H](C)CO2 5.52% (inactive)
O=C(C[C@@H]1CC[C@@H]2[C@H](COC[C@H](O)CN2S(=O)(=O)c2ccc(Cl)cc2)O1)N[C@@H]1CCN(Cc2ccccc2)C1 43.9% (inactive)
O=C(Nc1ccccc1)[C@@H]1[C@@H](CO)[C@@H]2Cn3c(cccc3=O)[C@@H]2N1C(=O)C1CC1 90.7% (inactive)

[Q] Endpoint output: inhibition of O=C(Nc1ccc(-c2ccccc2)cc1)[C@H]1[C@H](CO)[C@H]2Cn3c(cccc3=O)[C@H]2N1CC1CC1 . Value?
[A] 170% (active)

[Q] Endpoint output: inhibition of O=C(Nc1ccc(-c2ccccc2)cc1)[C@@H]1[C@@H](CO)[C@@H]2Cn3c(cccc3=O)[C@H]1N2Cc1ccncc1 . Value?
[A] 10.3% (inactive)

[Q] Endpoint output: inhibition of O=C(CN1CCOCC1)N1CCCCN2[C@@H](CO)[C@H](c3ccc(-c4ccccc4)cc3)[C@@H]2C1 . Value?
[A] 112% (active)

[Q] Endpoint output: inhibition of O=C(NCC1CCCCC1)[C@H]1[C@H](CO)[C@H]2Cn3c(cccc3=O)[C@H]2N1C(=O)CC1CC1 . Value?
[A] 101% (active)

[Q] Endpoint output: inhibition of C[C@@H]1CN([C@@H](C)CO)C(=O)c2cc(NC(=O)CCCN(C)C)ccc2O[C@@H](C)CCCCO[C@@H]1CN(C)S(=O)(=O)c1ccc(Cl)cc1 . Value?
[A] 25.4% (inactive)

[Q] Endpoint output: inhibition of O=C(N[C@@H]1CC[C@H](CCn2cc(-c3ccccc3)nn2)O[C@H]1CO)c1cnccn1 . Value?
[A] 20.6% (inactive)

[Q] Endpoint output: inhibition of COc1ccccc1S(=O)(=O)N[C@@H]1CC[C@H](CC(=O)N2CCN(C)CC2)O[C@@H]1CO . Value?
[A] -19.7% (inactive)

[Q] Endpoint output: inhibition of O=C(NC1CCCCC1)[C@@H]1[C@@H](CO)[C@@H]2Cn3c(cccc3=O)[C@@H]2N1C(=O)CC1CC1 . Value?
[A] -9.4% (inactive)

[Q] Endpoint output: inhibition of O=C(CN1CCOCC1)N1CCCCN2[C@H](C1)[C@H](c1ccc(-c3ccccc3F)cc1)[C@@H]2CO . Value?
[A] 26.1% (inactive)

[Q] Endpoint output: inhibition of O=C(NCc1cccc(F)c1)[C@H]1[C@H](CO)[C@H]2Cn3c(cccc3=O)[C@@H]1N2 . Value?
[A] 23.3% (inactive)

[Q] Endpoint output: inhibition of Cc1ccc(S(=O)(=O)N(C)C[C@H]2OCCCC[C@H](C)Oc3ccc(NC(=O)Cc4ccccc4)cc3C(=O)N([C@@H](C)CO)C[C@@H]2C)cc1 . Value?
[A] 110% (active)

[Q] Endpoint output: inhibition of C/C=C/c1ccc([C@H]2[C@@H](CO)N3CCCCN(C(=O)c4ccc(F)cc4)C[C@@H]23)cc1 . Value?
[A] 90.9% (inactive)

[Q] Endpoint output: inhibition of CCC(=O)N1CCCCN2[C@H](C1)[C@@H](c1ccc(/C=C/c3ccccc3)cc1)[C@@H]2CO . Value?
[A] 105% (active)

* * *

experiment: T. cruzi intracellular proliferation inhibitors, primary screen, cell-based, beta-gal Tulahuen parasites, NIH3T3 host, luminescence (AID 624255); conditions: T. cruzi beta-gal in NIH3T3, GalScreen luminescence, 90 h; at 8.34 µM; stronger effect = higher value
About 4,600 (6%) of roughly 77,000 compounds were called active. Inconclusive results (about 1%) are left out. The sample holds actives, similar compounds and a random draw of the others, so the mix is not that of the screen.
REPORTED ENDPOINT: inhibition (%)
All answers are understood in %, so give the number only.

Please review the entries below; each comes with its answer.
O=S(=O)(NC[C@H]1[C@@H](c2ccccc2)[C@@H](CO)N1CC1CC1)c1ccccc1 10.3
CCCNC(=O)C[C@@H]1CC[C@@H]2[C@H](COC[C@H](O)CN2C(=O)c2cc(Cl)cc(Cl)c2)O1 3.7

[Q] Endpoint output: inhibition of C[C@@H]1CCCCO[C@H](CN(C)S(C)(=O)=O)[C@@H](C)CN([C@@H](C)CO)C(=O)c2cc(NC(=O)CCC(F)(F)F)ccc2O1 . Value?
[A] 31.3

[Q] Endpoint output: inhibition of C[C@@H]1CN([C@@H](C)CO)C(=O)c2cc(NS(=O)(=O)c3cn(C)cn3)ccc2O[C@@H](C)CCCCO[C@@H]1CN(C)Cc1ccncc1 . Value?
[A] -84.1

[Q] Endpoint output: inhibition of COc1ccc(-c2ccc3c(c2)O[C@@H](CN(C)CC2CCOCC2)[C@@H](C)CN([C@@H](C)CO)S3(=O)=O)cc1 . Value?
[A] 40.6

[Q] Endpoint output: inhibition of CO[C@@H]1CN(C)C(=O)c2ccc(NS(=O)(=O)c3ccc(C)cc3)cc2OC[C@@H](C)N(Cc2nccs2)C[C@H]1C . Value?
[A] 41.1

[Q] Endpoint output: inhibition of O=C(NCc1ccccc1Cl)[C@H]1[C@H](CO)[C@H]2Cn3c(cccc3=O)[C@H]2N1C(=O)C1CCC1 . Value?
[A] 19.3
